Molecular target: T1, Claudin 18.2 (CLDN18.2), expressed on CHOS-CLDN 18.2 / HEK293-CLDN 18.2 / HCC827-CLDN 18.2 cells (human, UniProt P56856-2 1-261)
T1 construct: whole, on cells; The species is not repeated for the CHOS-CLDN 18.2 cells; also called claudin-18A2
Test: FACS, CHOS-CLDN18.2 cells, 5 µg/ml
Note to self: use Met only for FACS reading readings below 200000; a reading exactly at 200000 still gets Not met.

Q) A record lists QP14651460 (antibody, human IgG1, kappa, V domains shown, Humanized from QP207208) VH: EVQLVQSGAEVKKPGASVKVSCKASGYTFTSYIMHWVRQAPGQGLEWIGYINPYNDGTKYNEKFKGRVTLTSDKSTSTVYMELSSLRSEDTAVYYCARLGFTTRNAMDYWGQGTLVTVSS VL: DIVMTQSPDSLAVSLGERATINCKSSQSLLNSGNQKNYLAWYQQKPGQPPKLLIYGASTRESGVPDRFSGSGSGTDFTLTISSLQAEDVAVYYCQNDHSYPFTFGQGTKLEIKR . Is its FACS reading below 200000?
A) Met

Q) A record lists QP14641461 (antibody, human IgG1, kappa, V domains shown, Humanized from QP207208) VH: EVQLVQSGAEVKKPGASVKVSCKASGYTFTSYIMHWVRQAPGQGLEWIGYINPYNDGTKYNEKFKGRVTLTRDKSTSTVYMELSSLRSEDTAVYYCARLGFTTRNAMDYWGQGTLVTVSS VL: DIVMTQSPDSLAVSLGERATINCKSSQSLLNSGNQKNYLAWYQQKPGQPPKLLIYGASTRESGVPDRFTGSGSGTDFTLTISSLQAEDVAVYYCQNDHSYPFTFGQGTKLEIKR . Is its FACS reading below 200000?
A) Met

Q) A record lists QP14641462 (antibody, human IgG1, kappa, V domains shown, Humanized from QP207208) VH: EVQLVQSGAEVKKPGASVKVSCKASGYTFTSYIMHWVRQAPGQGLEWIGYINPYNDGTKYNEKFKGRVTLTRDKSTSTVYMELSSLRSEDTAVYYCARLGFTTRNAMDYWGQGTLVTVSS VL: DIVMTQSPDSLAVSLGERATINCKSSQSLLNSGNQKNYLAWYQQKPGQPPKLLIYGASTRESGVPDRFTGSGSGTDFTLTISSVQAEDVAVYYCQNDHSYPFTFGQGTKLEIKR . Is its FACS reading below 200000?
A) Not met

Q) A record lists QP14631461 (antibody, human IgG1, kappa, V domains shown, also called QP14611463) VH: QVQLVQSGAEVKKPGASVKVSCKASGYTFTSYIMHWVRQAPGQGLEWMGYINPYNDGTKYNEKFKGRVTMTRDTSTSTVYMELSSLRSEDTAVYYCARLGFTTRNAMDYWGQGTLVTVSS VL: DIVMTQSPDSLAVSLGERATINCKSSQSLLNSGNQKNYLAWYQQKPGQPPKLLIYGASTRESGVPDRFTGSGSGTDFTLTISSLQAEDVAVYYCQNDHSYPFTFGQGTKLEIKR . Is its FACS reading below 200000?
A) Not met

Q) A record lists QP024025 (antibody, human IgG1, V domains shown, also called IMAB362; 175D10(IMAB362)) VH: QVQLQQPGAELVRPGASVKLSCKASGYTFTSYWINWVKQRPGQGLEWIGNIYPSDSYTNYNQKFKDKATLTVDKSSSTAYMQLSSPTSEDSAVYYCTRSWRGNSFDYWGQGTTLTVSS VL: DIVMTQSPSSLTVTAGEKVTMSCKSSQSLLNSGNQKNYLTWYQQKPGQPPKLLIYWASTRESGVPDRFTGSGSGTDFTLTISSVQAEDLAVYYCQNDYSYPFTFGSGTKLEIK . Is its FACS reading below 200000?
A) Met

Q) A record lists QP207208 (antibody, human IgG1, V domains shown, Chimeric; also called 51A3; mouse-derived chimeric antibody QP207208) VH: EVQLQQSGPELVKPGASVKMSCKASGYTFTSYIMHWVKQKPGQGLEWIGYINPYNDGTKYNEKFKGKATLTSDKSSSTVYMELSSLTSEDSAVYCCARLGFTTRNAMDYWGQGTSVTVSS VL: DIVMTQSPSSLSVSAGEKVTMNCKSSQSLLNSGNQKNYLAWYQQKPGQPPKLLIYGASTRESGVPDRFTGSGSGTDFTLTISSVQAEDLAVYYCQNDHSYPFTFGSGTKLEIK . Is its FACS reading below 200000?
A) Met
